Origin of measurements: PubChem BioAssay

Assay: JHH-DIPG-1 glioma cell viability, MIPE5.0 library, CellTiter-Glo luminescence, qHTS (AID 1347067);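 also: cells exposed to compound for 48 hours before readout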
Conditions: JHH-DIPG-1 glioma viability, CellTiter-Glo ATP luminescence
Inconclusive results are not listed. Calls of active or inactive are those of the source. The limit is not given here; nearly all actives have AC50 up to about 26 µM.
Classes used: active, inactive

COMPOUND | LABEL CLASS
Cc1cc(Oc2ccc3nc(COc4ccc(CC5SC(=O)NC5=O)cc4)n(C)c3c2)cc(C)c1N (stereo unspecified) | inactive
Cc1cc(O)cc2c1[C@]1(C)CC[C@H]3C(C)(C)CCC[C@]3(C)[C@H]1C2 | inactive
CN(C)C1CCN(C(=O)c2ccc(NC(=O)Nc3ccc(-c4nc(N5CCOCC5)nc(N5CCOCC5)n4)cc3)cc2)CC1 | active
Cc1ccc(C(=O)N(CCCN)[C@@H](c2oc3cc(Cl)ccc3c(=O)c2Cc2ccccc2)C(C)C)cc1 | active
CC(=O)N[C@H]1[C@H](O[C@@H]2c3ccc(c(Cl)c3)Oc3cc4cc(c3O[C@@H]3O[C@H](CO)[C@@H](O)[C@H](O)[C@H]3NC(=O)CCCCCCCC(C)C)Oc3ccc(cc3Cl)C[C@H]3NC(=O)[C@H](N)c5ccc(O)c(c5)Oc5cc(O)cc(c5)[C@H](NC3=O)C(=O)N[C@H]4C(=O)N[C@H]3C(=O)N[C@@H]2C(=O)N[C@@H](C(=O)O)c2cc(O)cc(O[C@H]4O[C@H](CO)[C@@H](O)[C@H](O)[C@@H]4O)c2-c2cc3ccc2O)O[C@H](CO)[C@@H](O)[C@@H]1O | inactive
Cc1cc(Nc2cc(N)ncn2)c(=O)n2c1C(=O)NC21CCCCC1 | inactive

----------
Experiment: growth inhibition of DIPG cells – cell-based, MIPE5.0 library, qHTS (AID 1347068);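 as to IC50: cells exposed to compound for 48 hours before viability readout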
Settings: SU-DIPG-XXV viability
Results filed as inconclusive are left out. Activity calls are given as the source filed them. The limit is not given here; nearly all actives have IC50 up to about 30 µM.
Outcome codes: class 1 (active), class 0 (inactive)

COMPOUND | LABEL CLASS
Cc1cnc(-c2cc(N3CCN(C(=O)CCS(C)(=O)=O)CC3)ncc2Cl)c(C)c1 | class 0
COc1ccc(-c2nc(N3CCOCC3)c3sc(CN(C)c4ncc(C(=O)NO)cn4)cc3n2)cn1 | class 1
N#CN1CCC[C@@H](n2nc(-c3ccc(Oc4ccc(F)cc4F)cc3)c(C(N)=O)c2N)C1 | class 0
c1ccc(-c2ccc(CNc3nc(-c4ccccn4)nnc3-c3ccccc3)cc2)cc1 | class 1
COc1cc2c(cc1O)CCN[C@]21CS[C@@H]2c3c(OC(C)=O)c(C)c4c(c3[C@H](COC1=O)N1[C@@H]2[C@H]2c3c(cc(C)c(OC)c3O)C[C@@H]([C@@H]1O)N2C)OCO4 | class 1
CN1CCc2c(c3ccccc3n2Cc2ccc(C(=O)NO)cc2)C1 | class 0
CC(=O)Oc1cc2c(s1)CCN(C(C(=O)C1CC1)c1ccccc1F)C2 (centres undefined) | class 0
CC(N[C@H]1CCCC[C@@H]1NC(=O)c1ccc(Cl)cc1)c1cccc2ccccc12 (some centres undefined) | class 1
O=C(/C=C/c1ccc(CN(CCO)CCc2c[nH]c3ccccc23)cc1)NO | class 0

----------
Test: viability loss with induced miR-34 in A549 – imaging, A549 dox-inducible miR-34, nuclei and caspase counts, primary screen (AID 1347080)
Conditions: A549 miR-34 inducible, Hoechst nuclei count, 48 h; measured here: total cells with miR-34 induction; stronger effect = lower value
Form field: cell count (one value per entry).

COMPOUND | cell count
O=C(O)c1ccc(O)c2ncccc12 | 8640
O=C(O)CCC/C=C\C[C@@H]1[C@@H](/C=C/[C@@H](O)C2Cc3ccccc3C2)[C@@H](F)C[C@@H]1O | 4580
Cc1c(C(=O)NC2CCCCC2)sc2nc3ccc(N)cc3n12 | 5970
CCCC[C@H](C)C[C@H](O)/C=C/[C@H]1[C@H](O)CC(=O)[C@@H]1CCCC/C=C/C(=O)O | 5710
O=S(=O)(c1cccc2cnccc12)N1CCNCC1 | 9210
C/C=C/C[C@@H](C)[C@@H](O)[C@H]1C(=O)N[C@@H](CC)C(=O)N(C)CC(=O)N(C)[C@@H](CC(C)C)C(=O)N[C@@H](C(C)C)C(=O)N(C)[C@@H](CC(C)C)C(=O)N[C@@H](C)C(=O)NC(C)C(=O)N(C)[C@@H](CC(C)C)C(=O)N(C)[C@@H](CC(C)C)C(=O)N(C)[C@@H](C(C)C)C(=O)N1C (stereo partly specified) | 2270
Cn1cnc(-c2cc3nccc(Oc4ccc(NC(=S)NC(=O)Cc5ccccc5)cc4F)c3s2)c1 | 3930
CC(C)(C)n1nc(-c2cccc3ccccc23)c2c(N)ncnc21 | 3180
CCCCC/C=C\C/C=C\C/C=C\C/C=C\CCCC(=O)C(F)(F)F | 5370
COc1ccc(Nc2ncnc3ccc(OC)cc23)cc1 | 6910
CC(Nc1ncnc2nc[nH]c12)c1cc2cccc(Cl)c2c(=O)n1-c1ccccc1 (stereo unspecified) | 6590
COc1ccc(S(=O)(=O)N2c3ccc(Cl)cc3[C@](O)(c3ccccc3Cl)[C@@H]2C(=O)N2CCC[C@H]2C(N)=O)cc1OC | 8610
O=c1[nH]cnc2ccccc12 | 8900
CCCCc1ccc(N=CNO)c(C)c1 | 6020
CCCC/C=C/C=C/C=C\CCCCCCCC(=O)OC | 3920
NC1(c2ccc(-c3nc4ccn5c(=O)[nH]nc5c4cc3-c3ccccc3)cc2)CCC1 | 4130
CNC(=O)c1cc(Oc2ccc(NC(=O)Nc3cc(C(C)(C)C)nn3-c3ccc4ncccc4c3)c(F)c2)ccn1 | 608
COC(=O)C(Cc1ccc(OCCn2c(=O)sc3cc(C(=O)c4ccccc4)ccc32)cc1)C(=O)OC | 8190
Cc1ccc(OC[C@@H](O)[C@H](C)NC(C)C)c2c1CCC2 | 8280
Cc1c(C(=O)N(C)C2CCCCC2)sc2nc3ccc(N)cc3n12 | 7660
C=CCn1c(=O)c2cnc(Nc3ccc(N4CCN(C)CC4)cc3)nc2n1-c1cccc(C(C)(C)O)n1 | 1400
CC/C=C\C/C=C\C/C=C\C/C=C\CCCCCCC(=O)OCC | 5560
CCCCC[C@H](O)/C=C/[C@@H]1[C@@H](CCCCC(CC(=O)O)OC)[C@@H](O)C[C@H]1O (stereo partly specified) | 5980
COc1cccc(-c2cc(F)ccc2C2Cc3nc(N)nc(C)c3C(=O)N2)n1 (stereo unspecified) | 2200
CC(C)OC(=O)CCC/C=C\C[C@@H]1[C@@H](/C=C/C(F)(F)COc2ccccc2)[C@H](O)C[C@@H]1O | 5900
Nc1ccc(-c2cccc3c(=O)cc(N4CCOCC4)oc23)cc1 | 3870
CCCCC[C@H](O)/C=C/[C@H]1CC[C@@H](O)[C@@H]1C/C=C\CCCC(=O)O | 5950
CC(C)c1cnn2c(NCc3ccccc3)cc(NCCCCCCN)nc12 | 7920
NCCCCCCCCCCNS(=O)(=O)c1cccc2c(Cl)cccc12 | 5900
CCCCC/C=C/C=C1/C=CC(=O)[C@@H]1CCCCCCC(=O)O | 5570
Cc1ccc(NC(=O)c2cccc(C(C)(C)C#N)c2)cc1Nc1ccc2ncn(C)c(=O)c2c1 | 5830
CCCCCCN(CCCCCC)C(=O)Cc1c(-c2ccc(Cl)cc2)[nH]c2ccc(Cl)cc12 | 5700
Cn1c(Nc2ccc(C(F)(F)F)cc2)nc2cc(Oc3ccnc(-c4ncc(C(F)(F)F)[nH]4)c3)ccc21 | 2230
CC1(C)C[C@@H]1C(=O)N/C(=C\CCCCSC[C@@H](N)C(=O)O)C(=O)O | 9200
CCOC(=O)C1=C(C)NC(c2ccccc2)=C(C(=O)OCc2ccc([N+](=O)[O-])cc2)C1C#Cc1ccccc1 (stereo unspecified) | 7910
O=C(O)CCC/C=C\C[C@@H]1[C@@H](/C=C/[C@@H](O)C2CCCCC2)[C@H](O)C[C@@H]1O | 5910

----------
Test: drug combination growth inhibition, ovarian cancer – cell-based, oncology-focused library, rucaparib conditional, profiling panel (AID 1508598)
Conditions: patient-derived ovarian cancer cells, CellTiter-Glo viability, 144 h; at 0.000305 µM; OCI-C5x cells; with rucaparib 10 µM; stronger effect = lower value; 100% = cells with rucaparib alone

STRUCTURE STRING | MEASURE UNIT | viability
CN(C)N=Nc1nc[nH]c1C(N)=O | % | 107
Cc1cc(Nc2nc(N[C@@H](C)c3ncc(F)cn3)ncc2Cl)n[nH]1 | % | 99.3
CCC(CC)CC1(C(=O)Nc2ccccc2SC(=O)C(C)C)CCCCC1 | % | 115
C/C(=C\C(=O)Nc1ccccc1C(=O)O)c1ccc2ccccc2c1 | % | 89.1
COc1ccc(S(=O)(=O)Nc2cccnc2Nc2ccc(O)cc2)cc1 | % | 111

----------
Experiment: MELAS cybrid and Rieske KO viability enhancers – cell-based, MELAS cybrids, Rieske KO mouse fibroblasts, CellTiter-Glo, primary screen (AID 1508586);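 also: z relative to plate mean and SD of compound and empty wells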
Settings: MELAS cybrid survival, low glucose, CellTiter-Glo 48 h; stronger effect = higher value
Listed next: entries and their corresponding z-score.
PARAMETER MEASURED: z-score

COMPOUND | PARAMETER MEASURED | QUANTITATIVE RESULT
COC(=O)C1=C(C)NC(C)=C(C(=O)OC2CCCN(Cc3ccccc3)C2)C1c1cccc([N+](=O)[O-])c1 (centres undefined) | z-score | -0.438
O=C(COc1cccc2c(=O)[nH]ccc12)c1ccccc1 | z-score | -0.468
CNC(=O)c1ccc2c(C(=Nc3cccc(CN(C)C)c3)c3ccccc3)c(O)[nH]c2c1 | z-score | -0.483
O=C(Nc1cc2cc[nH]c2cn1)c1ccccc1 | z-score | -0.697
